System: SK-MEL-5 melanoma
Assay method text: NCI-60 one-dose screen, 48 h
Setup conditions: 10 µM unless noted
Compounds without any hit were thinned out: in the full panel of roughly 83,000, 20% have a hit. The source made the active and inactive calls. Rule for the calls: active = growth percent below 10; inactive = the rest.
Permitted responses: active, inactive

Illustrative cases are given below, each with its answer.
Compound	Class
CCCCCCCCOC(=O)CCN1CC1	inactive
CN1C(=O)C(=Cc2cn(Cc3ccccc3)c3ccccc23)C(=O)N(C)C1=O	inactive
C=CC[n+]1ccc(-c2cc[n+](CC=C)cc2)cc1	inactive
COc1cc2c(cc1OCCCCn1c(-c3cccs3)nc3ccccc31)N=C[C@@H]1CCCN1C2=O	active

Call for entry O=C(CCl)c1ccc([N+](=O)[O-])o1 :
inactive

Field: outcome | Entry: O=[N+]([O-])c1cc([N+](=O)[O-])c(Nn2c3ccccc3c3ccccc32)c([N+](=O)[O-])c1
active

// return assay outcome for COc1ccc2nc(NC(=O)COc3cc(/C=C\c4cc(OC)c(OC)c(OC)c4)ccc3OC)sc2c1
inactive

###

Test system: TK-10 renal
Assay method text: NCI-60 one-dose screen, 48 h (100 = growth as untreated, 0 = no growth, -100 = all killed)
Setup conditions: 10 µM unless noted
Compounds without any hit were thinned out: in the full panel of roughly 83,000, 20% have a hit.
Outcome measure: growth (%)
Write it as a number; the unit % goes unstated.

Example entries begin here.
Compound	growth / %
NC(=Nc1ccccc1)N[N+](=O)[O-]	103
CC[C@H](C)[C@H](NC(=O)C12CC(NC(C)=O)(C1)C2)C(=O)N(C)[C@H](C[C@@H](OC(C)=O)c1nc(C(=O)N[C@@H](Cc2ccccc2)C[C@H](C)C(=O)OC)cs1)C(C)C	50.4
C#Cc1ccc2c(c1)C(c1ccccc1)=NCC(=O)N2C	66.1
COC(=O)[C@@]1(C)CC[C@]2(C)CC[C@]3(C)C4=CC=C5C(=CC(=O)C(O)=C5C)[C@]4(C)CC[C@@]3(C)[C@@H]2C1	-95.7
CC(C)(C)C(=O)OCOP(=O)(OCOC(=O)C(C)(C)C)C1CCCN(O)C1=O (stereo not drawn)	2.8

The measured growth that Cc1ccc(Nc2nc3c(s2)C2=CC[C@@H]4[C@H](CC[C@]5(C)C(=O)CC[C@@H]45)[C@@]2(C)CC3)cc1 showed for TK-10 renal is 53.5

// assay TK-10 renal, entry CC(=O)OC1C(OC/C2=C/C3[C@@H](C(C)C)CC=C(C)[C@@H]3CC(OC(=O)/C=C/c3cn(C)cn3)[C@]3(C)C=C[C@@]2(O)O3)OCC(O)C1O (stereo partly drawn) , growth value = 32.3

Log: TK-10 renal, compound N/C(=N/N=C/c1ccncc1)N[N+](=O)[O-] , growth = 94.1

###

Test system: RPMI-8226 leukemia
Assay method text: NCI-60 one-dose screen, 48 h
Setup conditions: 10 µM unless noted
Compounds without any hit were thinned out: in the full panel of roughly 83,000, 20% have a hit. Active and inactive are the calls of the source. Rule for the calls: active = growth percent below 10; inactive = the rest.
Please answer using one outcome listed in active, inactive

Compound	Subject of test	Class
CCCCN1CCCC[C@@H]1C(=O)N[C@H](C(=O)N(C)[C@H](C[C@@H](OC(C)=O)c1nc(C(=O)NC2CCC(C(=O)OC)CC2)cs1)C(C)C)C(C)C (some centres undefined)	RPMI-8226 leukemia	inactive
O=C(Nc1ccc([As]=[As]c2ccc(NC(=O)c3ccccc3)cc2)cc1)c1ccccc1 (centres undefined)	RPMI-8226 leukemia	inactive
COC(=O)[C@@H](C)C[C@H](Cc1ccccc1)NC(=O)c1csc([C@@H](C[C@H](C(C)C)N(C)C(=O)[C@@H](NC(=O)[C@H]2CCCCN2C)c2ccc(F)cc2)OC(C)=O)n1	RPMI-8226 leukemia	inactive

Lab note: next compound to report on.
# outcome recorded in this test, key = COC(=O)C12CC(NC(=O)c3csc([C@@H](C[C@H](C(C)C)N(C)C(=O)[C@@H](NC(=O)[C@H]4CCCCN4C)C4CC4)OC(C)=O)n3)(C1)C2
inactive
